Hello, the source for this data is patent US20200246284A1, in case you need it.

tested on: JEKO-1; test: Cytotoxicity mantle cell lymphoma; details: read-out: cytotoxicity IC50; JEKO-1, mantle cell lymphoma
Attribute Measured: IC50 (nM)
Numbers only, in nM.

Task: Would you mind telling me what IC50 value was observed for CC(C)NCCCn1c(Sc2cc3c(cc2I)OCO3)nc2c(N)ncnc21 ?
Output: 260

----------
tested on: NECB-1; assay: Cytotoxicity mantle cell lymphoma; conditions: read-out: cytotoxicity IC50; NECB-1, mantle cell lymphoma; listed as Doxo
Attribute Measured: IC50 (nM)
Give bare numbers, in nM.

Task: Would you mind telling me what IC50 value was observed for COc1cccc2c1C(=O)c1c(O)c3c(c(O)c1C2=O)C[C@@](O)(C(=O)CO)C[C@@H]3O[C@H]1C[C@H](N)[C@H](O)[C@H](C)O1 ?
Output: 1230

----------
tested on: lymphoma cell lines (DLBCL GBC and ABC, mantle cell lymphoma); test: Cytotoxicity, panel of lymphoma cell lines (Tables 23, 24, 26); assay type: cell-based; settings: Homo sapiens, two resistant lines
pIC50: −log10 of the molar value.
Attribute Measured: pIC50

Task: Short answer please: pIC50, lymphoma cell lines (DLBCL GBC and ABC, mantle cell lymphoma), entry CN(C)CCNC(=O)c1cccc(NC(=O)Nc2ccc(N(CCCl)CCCl)cc2)c1 [BO-1055, Ureidomustine]
Output: < 5.00

----------
test system: H125; type: cell-based, human
Attribute Measured: IC50
For clarity, give the value followed by its unit.

Task: Would you mind telling me what IC50 value was observed for N.N.[Cl][Pt][Cl] [Cisplatin] ?
Output: 1500 nM

----------
Please go through the items and note down their pIC50.
tested on: Z-138; experiment: Cytotoxicity mantle cell lymphoma; conditions: read-out: cytotoxicity IC50; Z-138, mantle cell lymphoma
One number for each entry, as −log10 of the molar value.

INSERT INTO assay_data (compound, value_measured) VALUES
  ('COc1cccc2c1C(=O)c1c(O)c3c(c(O)c1C2=O)C[C@@](O)(C(=O)CO)C[C@@H]3O[C@H]1C[C@H](N)[C@H](O)[C@H](C)O1 [Doxorubicin]', 7.48),
  ('CN(C)CCNC(=O)c1cccc(NC(=O)Nc2ccc(N(CCCl)CCCl)cc2)c1 [BO-1055, Ureidomustine]', 6.52),
  ('CC(=O)O[C@H]1C(=O)[C@@]2(C)[C@H]([C@H](OC(=O)c3ccccc3)[C@]3(O)C[C@H](OC(=O)[C@H](O)[C@@H](NC(=O)c4ccccc4)c4ccccc4)C(C)=C1C3(C)C)[C@]1(OC(C)=O)CO[C@@H]1C[C@@H]2O [Paclitaxel]', 7.92);

Task: Short answer please: pIC50, Z-138, entry CC(C)NCCCn1c(Sc2cc3c(cc2I)OCO3)nc2c(N)ncnc21 [PUH71]
Output: 7.22

----------
assay: Plasma protein binding, equilibrium dialysis; type: in vitro ADME; settings: rat plasma, 24 h, read-out: % bound (converted)
Attribute Measured: fraction unbound at 24 h, 20 μM
One number for each entry.

Task: Would you mind telling me what fraction unbound at 24 h, 20 μM value was observed for CN(C)CCNC(=O)c1cccc(NC(=O)Nc2ccc(N(CCCl)CCCl)cc2)c1 [BO-1055, Ureidomustine] ?
Output: 0.248

----------
test: Plasma protein binding, equilibrium dialysis; type: in vitro ADME; conditions: rat plasma, 6 h, read-out: % bound (converted)
Attribute Measured: fraction unbound at 6 h, 20 μM
Numbers only.

Task: Would you mind telling me what fraction unbound at 6 h, 20 μM value was observed for CN(C)CCNC(=O)c1cccc(NC(=O)Nc2ccc(N(CCCl)CCCl)cc2)c1 ?
Output: 0.0799
